# EC50 per entry
- measurement-target: T1, full-length human OX40 protein (human, UniProt P43489 29-277)
- T1 construct: whole, on cells; also called hOX40; CD134
- T1 sequence (looked up): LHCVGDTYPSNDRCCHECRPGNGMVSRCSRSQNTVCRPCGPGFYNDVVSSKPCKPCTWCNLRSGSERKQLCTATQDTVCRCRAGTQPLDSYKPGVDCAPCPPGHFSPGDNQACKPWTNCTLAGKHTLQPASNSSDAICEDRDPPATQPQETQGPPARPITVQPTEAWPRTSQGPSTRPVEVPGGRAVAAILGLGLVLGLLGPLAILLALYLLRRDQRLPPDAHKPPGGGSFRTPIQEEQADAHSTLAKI
- assay-method-text: FACS on Jurkat-hOX40 cells, PE anti-human FC secondary antibody
Give your result in pM as a bare value.

// solved cases for EC50 follow
[[record]]
binder = "anti-human OX40 antibody BC3-6 (OX40 VHH-Fc) (Fc fusion, VHH fused through a linker to human IgG Fc, expressed in ExpiCHO, purified on Protein A; also called OX40 BC3-6; OX40 VHH-Fc antibody; not shown: linker encoded by the CMV-12GS-FC vector; human IgG FC fragment (hFC)) EVQLVESGGGLVQPGGSLRLSCAASGSILDSNLMGWFRQAPGKGRELVASINSYDDNTYYPDSVEGRFTISRDNAKRMVYLQMNSLRAEDTAVYYCAAQVFVGWPYTDQMHDYWGQGTQVTVSS"
data_value = 683

[[record]]
binder = "anti-human OX40 antibody BC3-7 (OX40 VHH-Fc) (Fc fusion, VHH fused through a linker to human IgG Fc, expressed in ExpiCHO, purified on Protein A; also called OX40 BC3-7; OX40 VHH-Fc antibody; not shown: linker encoded by the CMV-12GS-FC vector; human IgG FC fragment (hFC)) EVQLVESGGGLVQPGGSLRLSCAASGSIYDFDVMGWFRQAPGKGRELVAAINSFGDITYYPDSVEGRFTISRDNAKRMVYLQMNSLRAEDTAVYYCAADWHVLIQQVLGYWGQGTQVTVSS"
data_value = 548

[[record]]
binder = "anti-human OX40 antibody BC3-4 (OX40 VHH-Fc) (Fc fusion, VHH fused through a linker to human IgG Fc, expressed in ExpiCHO, purified on Protein A; also called OX40 BC3-4; OX40 VHH-Fc antibody; not shown: linker encoded by the CMV-12GS-FC vector; human IgG FC fragment (hFC)) EVQLVESGGGLVQPGGSLRLSCAASGFIFSAYFMGWFRQAPGKGRELVAAINSNDDITYYPDSVEGRFTISRDNAKRMVYLQMNSLRAEDTAVYYCAAWLGAENYGYWGQGTQVTVSS"
data_value = 395


Lookup: Please give the measured EC50 for this binder: anti-human OX40 antibody BC3-1 (OX40 VHH-Fc) (Fc fusion, VHH fused through a linker to human IgG Fc, expressed in ExpiCHO, purified on Protein A; also called OX40 BC3-1; OX40 VHH-Fc antibody; not shown: linker encoded by the CMV-12GS-FC vector; human IgG FC fragment (hFC)) EVQLVESGGGLVQPGGSLRLSCAASGSIFSVYVMGWFRQAPGKGRELVAAITPFDDNTYYPDSVEGRFTISRDNAKRMVYLQMNSLRAEDTAVYYCAADWEWPEYNYWGQGTQVTVSS
Found: 256
